Tested on: Escherichia coli TOP10
Assay: shrunken log2 fold change of peptide-encoding DNA abundance (4.5 h post-induction vs induction); higher = less antimicrobial activity (less host growth inhibition)
Details: time post-induction: 4.5 h; library: site-saturation at positions 5, 18, 19, 20
Using shrunken log2 fold change as the sorting value, the categories are category 1 = under -0.03, category 2 = from -0.03 up to 0.09, category 3 = 0.09 and over

Example entries and their recorded answers appear below.
RRIRNRPPRLPRPRPRPDVSPRP ... category 1
RRIRVRPPRLPRPRPRPCIGPRP ... category 1
RRIRQRPPRLPRPRPRPDLKPRP ... category 2
RRIRPRPPRLPRPRPRPMSRPRP ... category 1
RRIRNRPPRLPRPRPRPSTKPRP ... category 2

Lab note: sort "RRIRHRPPRLPRPRPRPVEPPRP" into the matching shrunken log2 fold change band.
category 3

Consider "RRIRSRPPRLPRPRPRPMDCPRP" . To which shrunken log2 fold change class does it belong?
category 2

Hello team, could you let me know which band the following sequence falls into: "RRIRPRPPRLPRPRPRPNVPPRP"
category 1

Category of "RRIRMRPPRLPRPRPRPCWNPRP" , please.
category 3

Categorize the following entry: "RRIRHRPPRLPRPRPRPLDFPRP"
category 1

Determine which band this sequence sits in: "RRIRLRPPRLPRPRPRPRVYPRP"
category 3

Assign a bin to "RRIRWRPPRLPRPRPRPIVTPRP"
category 3

Assign a bin to "RRIRRRPPRLPRPRPRPFEKPRP"
category 2

Category lookup for the sequence "RRIRKRPPRLPRPRPRPDPVPRP"
category 1

Returns: class label. Input: "RRIRMRPPRLPRPRPRPHQDPRP"
category 1

----------
Test system: Escherichia coli TOP10
Assay: shrunken log2 fold change of peptide-encoding DNA abundance (4.5 h post-induction vs induction); higher = less antimicrobial activity (less host growth inhibition)
Details: time post-induction: 4.5 h; library: site-saturation at positions 5, 18, 19, 20
Could you label it criterion met if measured shrunken log2 fold change is 0.007 or higher, and criterion not met otherwise?

Field: example entries. Status: answers known.
RRIRARPPRLPRPRPRPKLQPRP ... criterion met
RRIRSRPPRLPRPRPRPRYKPRP ... criterion not met
RRIRYRPPRLPRPRPRPECCPRP ... criterion not met
RRIRIRPPRLPRPRPRPGANPRP ... criterion met
RRIRPRPPRLPRPRPRPYGRPRP ... criterion not met

Does shrunken log2 fold change meet or surpass 0.007 for "RRIRQRPPRLPRPRPRPHMEPRP" ?
criterion not met

Is reported shrunken log2 fold change greater than or equal to 0.007 here: "RRIRSRPPRLPRPRPRPRHCPRP"
criterion met

Confirm if shrunken log2 fold change reported for the sequence "RRIRVRPPRLPRPRPRPGGAPRP" is 0.007 or above.
criterion met

Determine whether measured shrunken log2 fold change meets or exceeds 0.007 for "RRIRSRPPRLPRPRPRPGSEPRP"
criterion met

Determine whether this sequence has shrunken log2 fold change no lower than 0.007: "RRIRLRPPRLPRPRPRPLSPPRP"
criterion met

Check if shrunken log2 fold change >= 0.007 (inclusive). Item: "RRIRTRPPRLPRPRPRPQPSPRP"
criterion not met

Could you please find out whether "RRIRKRPPRLPRPRPRPQHHPRP" has shrunken log2 fold change that meets 0.007 or exceeds it?
criterion not met

Dear colleague, could you confirm whether "RRIRARPPRLPRPRPRPCKDPRP" has shrunken log2 fold change at or above 0.007?
criterion met

Test whether the sequence "RRIRFRPPRLPRPRPRPSKGPRP" records shrunken log2 fold change of 0.007 or higher.
criterion not met

----------
Test system: Escherichia coli TOP10
Assay: shrunken log2 fold change of peptide-encoding DNA abundance (4.5 h post-induction vs induction); higher = less antimicrobial activity (less host growth inhibition)
Conditions: time post-induction: 4.5 h; library: site-saturation at positions 5, 18, 19, 20
observable: shrunken log2 fold change

Known shrunken log2 fold change results, listed for orientation:
RRIRNRPPRLPRPRPRPGCYPRP ... -0.24
RRIRPRPPRLPRPRPRPCEQPRP ... 0.102
RRIRMRPPRLPRPRPRPHNFPRP ... -0.0303
RRIRMRPPRLPRPRPRPHDIPRP ... -0.104

We now examine a further sequence.
Quick check: shrunken log2 fold change of "RRIRQRPPRLPRPRPRPYPWPRP" ?
-0.266

----------
System: Escherichia coli TOP10
Assay: shrunken log2 fold change of peptide-encoding DNA abundance (4.5 h post-induction vs induction); higher = less antimicrobial activity (less host growth inhibition)
Settings: time post-induction: 4.5 h; library: site-saturation at positions 5, 18, 19, 20
The entries below come with measured shrunken log2 fold change values attached.
When you answer, write just the number.

// solved cases for shrunken log2 fold change follow
RRIRKRPPRLPRPRPRPGLQPRP ... -0.00225
RRIRWRPPRLPRPRPRPPQIPRP ... 0.117
RRIRARPPRLPRPRPRPIYSPRP ... -0.227
RRIRPRPPRLPRPRPRPHGGPRP ... 0.216
RRIRLRPPRLPRPRPRPSGVPRP ... -0.0863

Give its shrunken log2 fold change value. Item: "RRIRSRPPRLPRPRPRPTHIPRP"
-0.165

For the sequence shown here, "RRIRSRPPRLPRPRPRPTSYPRP" , give the reported shrunken log2 fold change.
-0.0485

GET /values?readout=shrunken log2 fold change&item= "RRIRPRPPRLPRPRPRPFMPPRP"
-0.793

Entry under review: "RRIRGRPPRLPRPRPRPHYNPRP" . Reported shrunken log2 fold change?
-0.265

----------
Test system: Escherichia coli TOP10
Experiment: shrunken log2 fold change of peptide-encoding DNA abundance (4.5 h post-induction vs induction); higher = less antimicrobial activity (less host growth inhibition)
Settings: time post-induction: 4.5 h; library: site-saturation at positions 5, 18, 19, 20
Threshold rule: shrunken log2 fold change greater than or equal to 0.03 is true; below that, false.

Study these solved cases before continuing.
RRIRLRPPRLPRPRPRPMGIPRP ... true
RRIRIRPPRLPRPRPRPKATPRP ... false
RRIRARPPRLPRPRPRPGGLPRP ... true
RRIRHRPPRLPRPRPRPWLRPRP ... false
RRIRKRPPRLPRPRPRPAIGPRP ... true

API: above_or_equal(metric=shrunken log2 fold change, cutoff=0.03) for item "RRIRMRPPRLPRPRPRPDPFPRP"
false

Identify whether the reported shrunken log2 fold change of the following sequence is 0.03 or greater: "RRIRNRPPRLPRPRPRPISTPRP"
false

For this sequence, is measured shrunken log2 fold change 0.03 or higher? "RRIRDRPPRLPRPRPRPVYVPRP"
false

Is it the case that "RRIRQRPPRLPRPRPRPVENPRP" has shrunken log2 fold change reaching or exceeding 0.03?
false

----------
Collected shrunken log2 fold change values appear next to each entry.
System: Escherichia coli TOP10
Assay: shrunken log2 fold change of peptide-encoding DNA abundance (4.5 h post-induction vs induction); higher = less antimicrobial activity (less host growth inhibition)
Details: time post-induction: 4.5 h; library: site-saturation at positions 5, 18, 19, 20
Hey, just send me the number, nothing else.

Observe how each entry below is paired with its result.
RRIRGRPPRLPRPRPRPYAGPRP ... -0.0412
RRIRARPPRLPRPRPRPLILPRP ... -0.252
RRIRCRPPRLPRPRPRPYQMPRP ... -1.3
RRIRMRPPRLPRPRPRPNGHPRP ... -0.00897
RRIRRRPPRLPRPRPRPQSGPRP ... 0.121
RRIRYRPPRLPRPRPRPFILPRP ... -1.19

Continue with the next sequence.
Record request: shrunken log2 fold change value, item "RRIRTRPPRLPRPRPRPACGPRP"
0.282

----------
System: Escherichia coli TOP10
Experiment: shrunken log2 fold change of peptide-encoding DNA abundance (4.5 h post-induction vs induction); higher = less antimicrobial activity (less host growth inhibition)
Details: time post-induction: 4.5 h; library: site-saturation at positions 5, 18, 19, 20
observable: shrunken log2 fold change
Answer using only a numeral; do not append any unit.

Endpoint output: shrunken log2 fold change of "RRIRGRPPRLPRPRPRPWVQPRP" . Value?
0.0601

Given the entry "RRIRFRPPRLPRPRPRPACHPRP" , report its measured shrunken log2 fold change.
-0.0466

Looking for the measured shrunken log2 fold change of "RRIRDRPPRLPRPRPRPSHAPRP" , can you help?
0.0738

Please look up its shrunken log2 fold change: "RRIRDRPPRLPRPRPRPPMIPRP"
-0.588

For the sequence shown here, "RRIRVRPPRLPRPRPRPFFHPRP" , give the reported shrunken log2 fold change.
0.145

----------
Measured shrunken log2 fold change, listed per entry.
Tested on: Escherichia coli TOP10;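 also: peptides expressed intracellularly from a pBAD plasmid library in pooled LB shake-flask culture, induced with 0.3% L-arabinose, DNA abundance read by NGS, three biological replicates, DESeq2 with apeglm shrinkage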
Assay: shrunken log2 fold change of peptide-encoding DNA abundance (4.5 h post-induction vs induction); higher = less antimicrobial activity (less host growth inhibition)
Conditions: time post-induction: 4.5 h; library: site-saturation at positions 5, 18, 19, 20
In your answer, state the number alone without any accompanying words.

# count of solved cases: 5
RRIRERPPRLPRPRPRPSGYPRP ... -0.0887
RRIRERPPRLPRPRPRPHAAPRP ... -0.0217
RRIRGRPPRLPRPRPRPETHPRP ... 2.22
RRIRTRPPRLPRPRPRPRKWPRP ... 0.215
RRIRIRPPRLPRPRPRPGVVPRP ... -0.47

Need shrunken log2 fold change, item "RRIRYRPPRLPRPRPRPMYCPRP"
-0.00674

Any idea what its shrunken log2 fold change is? The sequence is "RRIRGRPPRLPRPRPRPQVAPRP"
0.34

This collection of values is drawn from the supplement of paper PMC9112550.
